- targetUnderTest: hSK2 (Homo sapiens, UniProt Q9H2S1)
- procedureDetails: 86Rb+ efflux assay for compound activity towards hSK channels
- Assay type: cell-based
- runConditions: 86Rb+ efflux stimulated with calcium ionophore; drug 0.01 to 30 μM in EBSS; read-out: hSK2 Inhibitory Activity
pIC50: −log10 of the molar value.
observationType: pIC50

Known pIC50 results, listed for orientation:
c1ccc(-c2ccc(Nc3nc(-c4ccccn4)cs3)nc2)cc1
4.52 to 6.00
CSc1sc(Nc2ccccn2)nc1-c1ccccn1
4.52 to 6.00
CN1CCN(c2ccc(Nc3nc(-c4ccccn4)cs3)nc2)C(=O)C1
4.52 to 6.00

# next compound below
Value of measured pIC50 for the entry COC(=O)c1ccc(Nc2nc(-c3ccccn3)cs2)nc1 : 4.52 to 6.00

---

- targetUnderTest: hSK2 (Homo sapiens, UniProt Q9H2S1)
- procedureDetails: 86Rb+ efflux assay for compound activity towards hSK channels
- Assay type: cell-based
- runConditions: 86Rb+ efflux stimulated with calcium ionophore; drug 0.01 to 30 μM in EBSS; read-out: hSK2 Inhibitory Activity
pIC50: −log10 of the molar value.
As shown below, each of these compounds has a reported pIC50 value.

Solved cases (5 shown):
FC(F)(F)c1ccc(Nc2nc(-c3ccccn3)cs2)nc1
4.52 to 6.00
CCCCCCc1ccc(Nc2nc(-c3ccccn3)cs2)nc1
4.52 to 6.00
Cc1ccnc(Nc2nc(-c3c(C)nc4ccccn34)cs2)c1
4.52 to 6.00
c1csc(-c2ccc(Nc3nc(-c4nccs4)cs3)nc2)c1
4.52 to 6.00
c1ccc(Nc2nc(-c3ccccn3)cs2)nc1
> 7.52

pIC50 reading for Cc1ccnc(Nc2nc(-c3ccccn3)c(Cl)s2)c1 : 6.00 to 7.00

The measured pIC50 associated with c1cncc(-c2ccc(Nc3nc(-c4nccs4)cs3)nc2)c1 reads 4.52 to 6.00

Form field pIC50, entry c1ccc(-c2csc(Nc3ccc(N4CCOCC4)cn3)n2)nc1 : 7.00 to 7.52

Entry Brc1ccc(Nc2nc(-c3ccccn3)cs2)nc1 — recorded pIC50 = 4.52 to 6.00

---

- targetUnderTest: hSK2 (Homo sapiens, UniProt Q9H2S1)
- procedureDetails: 86Rb+ efflux assay for compound activity towards hSK channels
- Format: cell-based
- runConditions: 86Rb+ efflux stimulated with calcium ionophore; drug 0.01 to 30 μM in EBSS; read-out: hSK2 Inhibitory Activity
pIC50: −log10 of the molar value.
Quick list: pIC50 per entry.

As a guide, the following entries are already answered.
CC(C)c1ccc(Nc2nc(-c3cnccn3)cs2)nc1
4.52 to 6.00
CC1CCN(c2ccc(Nc3nc(-c4ccccn4)cs3)nc2)CC1
7.00 to 7.52
Cc1ccnc(Nc2nc(-c3c(C)nc4cc(C)ccn34)cs2)c1
4.52 to 6.00

Field: next molecule
Lab note: Cc1cc(Nc2nc(-c3ccccn3)cs2)ncc1I gave pIC50 of 6.00 to 7.00

---

The following molecules are shown together with reported pIC50 values.
- targetUnderTest: hSK2 (Homo sapiens)
- procedureDetails: 86Rb+ efflux assay for compound activity towards hSK channels
- Format: cell-based
- runConditions: 86Rb+ efflux stimulated with calcium ionophore; drug 0.01 to 30 μM in EBSS; read-out: hSK2 Inhibitory Activity
pIC50: −log10 of the molar value.

c1ccc(Nc2csc(Nc3ccccn3)n2)nc1
4.52 to 6.00

Lab book: pIC50 of Cc1ccc(Nc2nc(-c3cnccn3)cs2)nc1 noted as 7.00 to 7.52

response.value for O=[N+]([O-])c1ccc(Nc2nc(-c3nccs3)cs2)nc1 (field: pIC50) = 4.52 to 6.00

So, Clc1ccc(Nc2nc(-c3nccs3)cs2)nc1 ? Its pIC50 was 4.52 to 6.00

Source of measurements: patent US20050227989A1
